Tested on: CbCln3 Δex7/8/Δex7/8 GFP-LC3 cerebellar neuronal cells
ASSAY PROTOCOL: fraction of GFP-LC3-positive cells (≥5 vesicles/cell); higher = more autophagosome accumulation
The full ranking holds about 1,700 compounds; the median of “fraction of GFP-LC3-positive cells (≥5 vesicles/cell)” is about 0.43, and the highest 2% start at about 0.81. The list comes from a sample in which the highest values are over-represented; it also holds close analogues and randomly drawn compounds.
OBSERVATION TYPE: fraction of GFP-LC3-positive cells
Answer with a bare number; do not write a unit.

These solved cases illustrate the format of a correct answer.
COMPOUND	fraction of GFP-LC3-positive cells
COc1cc(S(C)=O)ccc1-c1nc2ncccc2[nH]1 (configuration not stated) [Sulmazole]	0.364
C[C@@H](O)CCC[C@H](O)/C=C/[C@@H]1[C@@H](C/C=C\CCCC(=O)O)[C@@H](O)C[C@H]1O [19(R)-Hydroxy-prostaglandin F2a]	0.532
CCCCCCCCCC(=O)N[C@@H](CCCN=C(N)N)C(=O)N[C@H](C(=O)N[C@@H](CCCCN)C(=O)N[C@@H](CCCN=C(N)N)C(=O)CCl)C(C)C	0.536
Clc1ccc(COC(Cn2ccnc2)c2ccc(Cl)cc2Cl)c(Cl)c1 (configuration not stated) [Miconazole]	0.337
CC1(C)[C@@H](OC(=O)CCC(=O)[O-])CC[C@]2(C)[C@H]3C(=O)C=C4[C@@H]5C[C@@](C)(C(=O)[O-])CC[C@]5(C)CC[C@@]4(C)[C@]3(C)CC[C@@H]12.[Na+].[Na+] [Carbenoxolone disodium salt]	0.269

Param item = COC(=O)C1=C(C)NC(C)=C(C(=O)OCCN(C)Cc2ccccc2)C1c1cccc([N+](=O)[O-])c1 (configuration not stated) [Nicardipine] ; retrieve measured fraction of GFP-LC3-positive cells.
0.146

Param item = CCCCC/C=C\C[C@@H](O)/C=C/C=C\CCC(=O)O [Tetranor-12(R)-HETE] ; retrieve measured fraction of GFP-LC3-positive cells.
0.513

###

Below, each entry is listed with its recorded fraction of GFP-LC3-positive cells.
Test system: CbCln3 Δex7/8/Δex7/8 GFP-LC3 cerebellar neuronal cells
ASSAY PROTOCOL: fraction of GFP-LC3-positive cells (≥5 vesicles/cell); higher = more autophagosome accumulation
The full ranking holds about 1,700 compounds; the median of “fraction of GFP-LC3-positive cells (≥5 vesicles/cell)” is about 0.43, and the highest 2% start at about 0.81. The list comes from a sample in which the highest values are over-represented; it also holds close analogues and randomly drawn compounds.

COMPOUND	OBSERVED MEASUREMENT
COc1c2occc2c(OC)c2c(=O)cc(C)oc12 [Khellin]	0.508

Param item = COc1cc([C@@H]2c3cc4c(cc3[C@@H](OC3OC5COC(C)OC5C(O)C3O)[C@H]3COC(=O)[C@H]23)OCO4)cc(OC)c1O (some centres undefined) [etoposide] ; retrieve measured fraction of GFP-LC3-positive cells.
0.664

Param item = COC(=O)Nc1nc2cc(C(=O)c3cccs3)ccc2[nH]1 [Nocodazole] ; retrieve measured fraction of GFP-LC3-positive cells.
0.916

Param item = CCCC[C@@H](C=O)NC(=O)OC(C)(C)C ; retrieve measured fraction of GFP-LC3-positive cells.
0.447

Param item = COC(=O)Nc1nc2cc(C(=O)c3cccs3)ccc2[nH]1 [nocodazole] ; retrieve measured fraction of GFP-LC3-positive cells.
0.612

Param item = O=C(O)c1ccc2nc(-c3ccccc3)c(-c3ccccc3)nc2c1 ; retrieve measured fraction of GFP-LC3-positive cells.
0.507

Param item = CCC1NC(=O)c2cc(S(N)(=O)=O)c(Cl)cc2N1 (centres undefined) [Quinethazone] ; retrieve measured fraction of GFP-LC3-positive cells.
0.417

Param item = CC(C(=O)O)c1ccc(C(=O)c2cccs2)cc1 (centres undefined) [Suprofen] ; retrieve measured fraction of GFP-LC3-positive cells.
0.46

Param item = CC(C)C[C@H](NC(=O)[C@H]1CCCN1C(=O)OCc1ccccc1)C(=O)NCC(=O)NO ; retrieve measured fraction of GFP-LC3-positive cells.
0.442
